- Experimental system: HLA DRB1*13:02 (Homo sapiens, UniProt P01903+P01911, A100E/A169T/K41T/L162R/M171V/P40S/Q125H/Q178H/Q39Y/Q99D/R42S/S66N/T262R/V115G/W38E/Y61H)
- Sequence (P01903 26-254 limits assumed, other chains not shown): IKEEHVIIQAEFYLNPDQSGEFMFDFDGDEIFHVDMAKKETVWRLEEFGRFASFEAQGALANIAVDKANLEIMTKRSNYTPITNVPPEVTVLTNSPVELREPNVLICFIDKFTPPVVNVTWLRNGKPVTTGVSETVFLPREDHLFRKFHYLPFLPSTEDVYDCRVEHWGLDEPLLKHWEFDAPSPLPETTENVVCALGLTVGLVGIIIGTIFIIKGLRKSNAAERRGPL
- Assay remarks: biochemical
- Assay type: binding
- Test settings: binder threshold 1,000 nM, read-out: In vitro (IC50 nM) DRB1*13:02
Observed property: IC50 (nM)
Report the value in nM with no unit label.

Compound	Observed property	Obs value
CC[C@H](C)[C@H](NC(=O)[C@@H](NC(=O)[C@@H]1CCCN1C(=O)[C@@H](NC(=O)[C@@H](NC(=O)[C@H](CC(N)=O)NC(=O)[C@H](CCCNC(=N)N)NC(=O)[C@H](CCCCN)NC(=O)[C@@H](NC(=O)[C@H](Cc1ccc(O)cc1)NC(=O)[C@H](C)NC(=O)[C@H](Cc1ccccc1)NC(=O)[C@H](CC(C)C)NC(=O)[C@H](C)N)[C@@H](C)O)C(C)C)[C@@H](C)CC)[C@@H](C)O)C(=O)N[C@H](C(=O)O)[C@@H](C)O [NSP12_106]	IC50	32

Now look at this one.
Prompt line: Request the reported IC50 associated with CC(C)C[C@H](NC(=O)[C@H](CCCNC(=N)N)NC(=O)[C@H](Cc1ccc(O)cc1)NC(=O)[C@H](Cc1ccccc1)NC(=O)[C@H](CCCNC(=N)N)NC(=O)[C@H](Cc1c[nH]cn1)NC(=O)[C@H](CO)NC(=O)[C@H](CC(C)C)NC(=O)[C@H](CO)NC(=O)[C@H](CS)NC(=O)[C@H](CS)NC(=O)[C@@H](NC(=O)[C@@H](NC(=O)[C@H](Cc1c[nH]cn1)NC(=O)[C@@H](N)CCCCN)[C@@H](C)O)[C@@H](C)O)C(=O)O [NSP12_129]
Response line: 1170
